ASSAY_TARGET: BRD2 (Homo sapiens (Human))
Sequence (P25440 60-472): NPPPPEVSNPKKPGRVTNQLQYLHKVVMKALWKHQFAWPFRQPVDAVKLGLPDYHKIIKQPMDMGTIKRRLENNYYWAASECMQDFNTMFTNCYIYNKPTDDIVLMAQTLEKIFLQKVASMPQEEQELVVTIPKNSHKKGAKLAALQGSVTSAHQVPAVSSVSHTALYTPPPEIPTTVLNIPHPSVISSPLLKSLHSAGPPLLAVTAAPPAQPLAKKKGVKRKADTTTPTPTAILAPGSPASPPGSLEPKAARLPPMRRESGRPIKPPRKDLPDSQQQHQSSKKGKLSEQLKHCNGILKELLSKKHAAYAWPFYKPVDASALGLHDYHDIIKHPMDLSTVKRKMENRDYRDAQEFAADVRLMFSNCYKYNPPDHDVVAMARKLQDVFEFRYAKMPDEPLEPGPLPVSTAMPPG
REPORTED_METRIC: IC50 (nM)

MOLECULE | ASSAY_TARGET | IC50 / nM
Cc1cc(N2C(=O)c3cc(-c4cccnc4O)[nH]c3C2c2ccc(Cl)cc2)cn2c(C)nnc12 (stereo not shown) | BRD2 (Homo sapiens (Human)) | 78
COc1ccc(-c2cc3c(n2C)C(c2ccc(Cl)cc2)N(c2cc(C)c(=O)n(C)c2)C3=O)cn1 (stereo not shown) | BRD2 (Homo sapiens (Human)) | 40

(a) Cc1cc(N2C(=O)c3c(C(=O)N(C)C)cn(C)c3C2c2ccc(Cl)cc2)cn2c(C)nnc12 (stereo not shown)
(b) COCCn1cc(C)c2c1C(c1ccc(Cl)cc1)N(c1cc(C)c3nnc(C)n3c1)C2=O (stereo not shown)
query: Select the item with the higher value of IC50 from the options a and b listed. Record your answer as the label of the chosen record.
result: b
